- assayedSystem: T1, Znf706 (Homo sapiens, UniProt Q9Y5V0 1-76)
- T1 sequence: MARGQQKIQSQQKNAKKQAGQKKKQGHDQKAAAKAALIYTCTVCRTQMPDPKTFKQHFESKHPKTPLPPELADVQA
- experimentNotes: MST; range over all G4s; less strong; exact value in figure; FP/anisotropy: 20 mM NaPi, 100 mM KCl, 0.05% NaN3, pH 7.4, 25 C (LiCl variant: 20 mM Tris-HCl, 100 mM LiCl, pH 7.4; NaCl variant: 20 mM NaPi, 100 mM NaCl, pH 7.4); NMR: 20 mM NaPi, 100 mM KCl, 7.5% D2O, pH 7.4, 4-50 C
- studyConditions: protein: recombinant; tags: none (His6-SUMO cleaved); chain copies: 2; label: 5' 6-FAM; hybrid G4
parameter: Kd

INSERT INTO results (binder, readoutvalue) VALUES
  ('TTGGGTTAGGGTTAGGGTTAGGGA (structured_DNA) [hTel, 6-FAM]', '~4.47 µM');
